tested on: ACHN renal; experiment: NCI-60 one-dose screen, 48 h (100 = growth as untreated, 0 = no growth, -100 = all killed); settings: 10 µM unless noted
This is part of a sample that, as a whole, favours compounds with a hit. Of some 83,000 tested, about 20% had one in any assay.
# if value of growth reaches 90%, tag 1.0; if it stays below, tag 0.0

1) Cc1ccc2c(n1)C(=O)C(Cl)=C(Nc1ccc(C(F)(F)F)cc1)C2=O
0.0
2) COc1ccccc1/C=C1\Oc2ccc(O)c(O)c2C1=O
1.0
3) C#CCOc1ccccc1/C=N/Nc1nc(-c2ccc(Cl)cc2)cs1
1.0
4) COc1ccc(NC(=O)CCCCCCNC(=O)C(O)(O)C(F)(F)F)cc1
0.0
5) O=C(CCl)Nc1ccc(NC(=O)c2cc(Cl)ccc2O)c(Cl)c1
0.0
6) CCCCSC1=C(Cl)CN(c2ccc(Cl)cc2)C1=O
1.0
7) C#CCN(C)CCCOc1ccc(NC(=O)CCCCCCCCC(=O)NO)cc1Cl
0.0
8) O=C(CCCCCCNC(=O)C(O)(O)C(F)(F)F)Nc1ccc(Br)cc1
0.0
9) CNc1sc(S(=O)(=O)NC)nc1S(=O)(=O)c1ccc(C)cc1
1.0
10) Cc1ccc(NC2=C(Cl)C(=O)c3nc(C)ccc3C2=O)c(C)c1
0.0
11) CCCCSC1=C(Cl)CN(c2ccccc2)C1=O
1.0
12) Cc1ccccc1N1CCN(C2=C(Cl)C(=O)c3ncccc3C2=O)CC1
0.0
13) COc1cc(/C=C2/C(=O)Nc3ccc(Cl)cc32)ccc1OCc1ccc(Cl)cc1
0.0
14) Cc1ccccc1Nc1nc(SC(C)C)nc(-c2ccccc2)c1C#N
0.0
15) CC1CCN(CC(=O)Nn2c(COc3ccccc3)nc3ccccc3c2=O)CC1
1.0
16) CCOC(=O)c1cccc(NC2=C(Cl)C(=O)c3nc(C)ccc3C2=O)c1
1.0
17) Cn1c(SCC(=O)c2ccc(F)cc2)nc2ccccc2c1=O
1.0
18) Cc1[nH]c(C(=O)Nc2ccccc2OCc2cccc(C(=O)NC3CCCNC3)c2)c(Cl)c1Cl (stereo not drawn)
0.0
19) O=C(CSc1nnc(-c2ccc(Cl)cc2)n1-c1ccccc1)Nc1cccc(F)c1
0.0
20) Clc1cccc(/C=N/Nc2nc(N/N=C/c3cccc(Cl)c3)nc(N3CCCCC3)n2)c1
1.0
21) COc1ccc(Cn2cc(C#N)c(N)c2C(C)=O)cc1
1.0
22) CCCCCc1ccc(S(=O)(=O)Nc2cc(-c3csc(N)n3)ccc2OC)cc1
1.0
23) Cn1ncc2c(C(=O)c3ccc(F)cc3)nc(C(C)(C)C)nc21
1.0
24) COc1ccc(OC)c(CCn2cncc2-c2c[nH]c3ccc(Cl)cc23)c1
0.0
